tgt: T1, Bfr containing only BfrB subunits (24-mer BfrB) isolated from P. aeruginosa (P. aeruginosa PAO1 (endogenous), UniProt Q9HY79 1-158)
T1 construct: BfrB, bacterioferritin subunit of P. aeruginosa PAO1, gene PA3531; subunit mass 18,552 Da by LC-MS; 24 copies hold for the homooligomer (SPR target, self rows); in the rows with m3 it stands for the BfrB subunits of the heterooligomeric 24-mer Bfr; also called homooligomeric BfrB; Bfr (0% FtnA, 21% O2); source: purified from P. aeruginosa PAO1 or ΔftnA cells (Q Sepharose, hydroxyapatite, Superdex …)
assay_comment: SPR; Biacore X100, 25 °C; Bfr or FtnArec immobilised on CM5 chips by amine coupling (100 nM in 10 mM sodium acetate pH 5.0); Bfd 0-40 μM flowed at 5 µL/min in PBS pH 7.4 with 1 mM TCEP; steady-state analysis, steric factor n set to 0.91
condition_label: both partners purified
reported_property: Kd (µM)
Your answer is read as µM, so omit the unit and give the number.

Asked: Fill in reported Kd for this entry: bacterioferritin-associated ferredoxin (Bfd) (natural protein, P. aeruginosa, UniProt Q9HY80 1-73, looked up, Bfd, the bacterioferritin-associated [2Fe-2S] ferredoxin of P. aeruginosa, product of the bfd gene next to bfrB; Holds a [2Fe-2S] cluster) MYVCLCQGVTDNQIRDAIYEGCCSYREVREATGVGTQCGKCACLAKQVVRETLNDLQSAQPVPAFGTTAFVAA
Given back: 4.7
